target-or-system: T1, human LTBR ECD (S28-M227) N- and C-terminally extended-Fc-fusion wt kih HRYF-Avi-His biotinylated (P1AE7979) (human, UniProt P0DOX5 223-449 = IgG part, biotinylated avi tag)
T1 construct: also called hu LTBR
method: SPR, IgG captured;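 also: rate constants and KD obtained by fitting double-referenced sensorgrams to a 1:1 Langmuir binding model, with dissociation followed for 600 s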
Listed binders paired with reported T1/2
# value in min; strip the unit string

binder: P1AF0079 (antibody, human IgG1, kappa, L234A L235A, V domains shown, human IgG1 PG LALA; from transgenic rabbit immunization; also called LTBR (0079)) VH: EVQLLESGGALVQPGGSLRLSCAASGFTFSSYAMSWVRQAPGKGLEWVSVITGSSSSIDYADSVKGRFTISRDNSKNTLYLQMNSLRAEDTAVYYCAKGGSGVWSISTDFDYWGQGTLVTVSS VL: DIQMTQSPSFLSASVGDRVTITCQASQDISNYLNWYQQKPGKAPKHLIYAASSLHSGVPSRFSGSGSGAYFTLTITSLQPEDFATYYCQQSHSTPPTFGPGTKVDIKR
output-unit: min
T1/2: 5
//
binder: P1AF0080 (antibody, human IgG1, kappa, L234A L235A, V domains shown, human IgG1 PG LALA; from transgenic rabbit immunization; also called LTBR (0080)) VH: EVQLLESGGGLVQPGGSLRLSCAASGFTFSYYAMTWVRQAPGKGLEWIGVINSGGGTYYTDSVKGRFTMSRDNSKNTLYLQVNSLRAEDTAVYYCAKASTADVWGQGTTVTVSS VL: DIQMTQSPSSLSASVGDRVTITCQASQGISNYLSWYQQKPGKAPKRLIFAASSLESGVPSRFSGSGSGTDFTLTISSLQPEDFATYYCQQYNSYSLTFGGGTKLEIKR
output-unit: min
T1/2: 6

We now examine a further binder.
Can you look up the measured T1/2 of P1AE9457 (antibody, human IgG1, kappa, L234A L235A, V domains shown, human IgG1 PG LALA; from transgenic rabbit immunization; also called LTBR (9457)) VH: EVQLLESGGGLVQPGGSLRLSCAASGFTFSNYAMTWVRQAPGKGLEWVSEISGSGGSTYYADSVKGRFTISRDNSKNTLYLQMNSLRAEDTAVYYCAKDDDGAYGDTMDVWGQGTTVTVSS VL: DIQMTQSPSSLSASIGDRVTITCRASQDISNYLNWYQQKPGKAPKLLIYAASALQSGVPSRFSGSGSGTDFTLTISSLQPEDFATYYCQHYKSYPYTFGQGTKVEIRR for me?
18
